# system: KRAS G12C (Homo sapiens, UniProt P01116, G12C)
# Sequence (P01116 1-188 isoform P01116-2 G12C): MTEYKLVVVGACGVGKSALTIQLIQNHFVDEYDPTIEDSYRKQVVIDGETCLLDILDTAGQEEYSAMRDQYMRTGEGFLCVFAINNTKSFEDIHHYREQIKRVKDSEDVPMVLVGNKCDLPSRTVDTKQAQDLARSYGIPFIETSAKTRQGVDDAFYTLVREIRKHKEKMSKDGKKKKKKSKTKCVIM
# method: phospho-ERK HTRF assay in Ras Initiative (RI) KRAS G12C cells
# condition notes: phospho-ERK1/2 HTRF, 11-point dose response from 2,500 nM, treatment for either 4 hours or 16 hours, read-out: pERK (RI)
measured property: IC50

Below are worked cases with known answers.
C=CC(=O)N1[C@H](C)CN(c2nc(=O)n3c4c(c(-c5cc(Br)c(F)cc5F)c(C(F)(F)F)cc24)SC[C@H](c2ccccn2)C3)C[C@@H]1C [Example 103]; > 0.25 µM
C=CC(=O)N1[C@H](C)CN(c2nc(=O)n3c4c(c(-c5cc(Cl)c(F)cc5F)c(C(F)(F)F)cc24)SC[C@@H](c2cccnc2)C3)C[C@@H]1C (atropisomer, axis not shown) [Example 104A]; 0.0005 to 0.002 µM
C=CC(=O)N1[C@H](C)CN(c2nc(=O)n3c4c(c(-c5ccc(F)cc5)c(C(F)(F)F)cc24)SCC(c2ccc(F)cc2)C3)C[C@@H]1C (some centres unmarked) [Example 115]; 0.02 to 0.25 µM
C=CC(=O)N1[C@H](C)CN(c2nc(=O)n3c4c(c(-c5ccc(F)cc5)c(C(F)(F)F)cc24)SC[C@H](c2cccs2)C3)C[C@@H]1C [Example 124]; 0.02 to 0.25 µM
C=CC(=O)N1[C@H](C)CN(c2nc(=O)n3c4c(c(-c5cc(Cl)c(F)cc5F)c(C(F)(F)F)cc24)SC[C@@H](c2cncc(F)c2)C3)C[C@@H]1C [Example 109]; 0.002 to 0.02 µM
C=CC(=O)N1[C@H](C)CN(c2nc(=O)n3c4c(c(-c5cc(Cl)c(F)cc5F)c(C(F)(F)F)cc24)SC[C@@H](c2ccncc2F)C3)C[C@@H]1C (single isomer, unassigned) [Example 112A]; 0.002 to 0.02 µM
C=CC(=O)N1[C@H](C)CN(c2nc(=O)n3c4c(c(-c5cc(Br)c(F)cc5F)c(C(F)(F)F)cc24)SC[C@@H](c2cccnc2)C3)C[C@@H]1C [Example 108B]; 0.002 to 0.02 µM

Could you now consider this next compound?
Record C=CC(=O)N1[C@H](C)CN(c2nc(=O)n3c4c(c(-c5cc(Br)c(F)cc5F)c(C(F)(F)F)cc24)SC[C@@H](c2ccccn2)C3)C[C@@H]1C (single isomer, unassigned) [Example 107A] , field IC50: 0.002 to 0.02 µM
